- target.system: UniProtKB P05413
- Sequence (P05413 whole entry): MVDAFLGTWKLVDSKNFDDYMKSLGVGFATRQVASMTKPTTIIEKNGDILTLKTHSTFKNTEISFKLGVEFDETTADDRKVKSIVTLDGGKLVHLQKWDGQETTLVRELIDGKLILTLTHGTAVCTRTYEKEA
- assay.text: Displacement of DAUDA from recombinant human N-terminal His-tagged FABP3 expressed in Escherichia coli BL21(DE3) after 20 mins by fluorescence assay
- cond: read-out: Ki
Documented Ki across a set of molecules

// below: answered molecules
INSERT INTO results (line_notation, reported_property, measured) VALUES
  ('O=C(O)[C@H]1[C@@H](c2ccccc2)[C@H](C(=O)Oc2cccc3ccccc23)[C@@H]1c1ccccc1', 'Ki', '3.26 µM'),
  ('COc1ccccc1[C@H]1[C@H](C(=O)O)[C@H](c2ccccc2OC)[C@H]1C(=O)Oc1cccc2ncccc12', 'Ki', '> 10 µM');

Now take the following molecule into account.
Would you mind telling me what Ki value was observed for O=C(O)[C@H]1[C@H](c2ccccc2)[C@H](C(=O)O)[C@H]1c1ccccc1 ?
> 10 µM
